details: 353.15 K; 7100 kPa; Liquid; Pendant drop shape
property: interfacial tension (mN/m)

1. CCCCCCCCCCC [undecane] + O=C=O : 9.31
2. CCCCCCCCCCCCC [tridecane] + O=C=O : 10.41
3. CCCCCCCCCCCC [dodecane] + O=C=O : 9.44
4. CCCCCCCCCCCCCCCCC [heptadecane] + O=C=O : 11.26

====

settings: 323.15 K; 8100 kPa; Liquid; Pendant drop shape
property: interfacial tension (mN/m)

// below: answered molecules
1) CCCCCCCCCC [decane] + O=C=O : 4.89
2) CCCCCCCCCCCC [dodecane] + O=C=O : 5.57

1. CCCCCCCCCCC [undecane] + O=C=O
2. CCCCCCCCCCCCCCC [pentadecane] + O=C=O
Exercise: Quick one: lower interfacial tension, 1 or 2 ? Write the label of whichever entry you select.
Solution: 1

====

conditions: 353.15 K; 3100 kPa; Liquid; Pendant drop shape
property: interfacial tension (mN/m)

1. CCCCCCCCCCCCCCCCCCC [nonadecane] + O=C=O : 16.88
2. CCCCCCCCCCCC [dodecane] + O=C=O : 14.66
3. CCCCCCCCCCCCCCC [pentadecane] + O=C=O : 16.23
4. CCCCCCCCCCC [undecane] + O=C=O : 14.38

====

details: 323.15 K; 4100 kPa; Liquid; Pendant drop shape
property: interfacial tension (mN/m)

1) CCCCCCCCCCCCCCCCC [heptadecane] + O=C=O : 15.49
2) CCCCCCCCCCC [undecane] + O=C=O : 13.12
3) CCCCCCCCCC [decane] + O=C=O : 12.56
4) CCCCCCCCCCCCC [tridecane] + O=C=O : 14.42
5) CCCCCCCCCCCC [dodecane] + O=C=O : 13.55

====

details: 323.15 K; 6100 kPa; Liquid; Pendant drop shape
property: interfacial tension (mN/m)

1. CCCCCCCCCCCCC [tridecane] + O=C=O : 11.47
2. CCCCCCCCCCCCCCC [pentadecane] + O=C=O : 11.98
3. CCCCCCCCCC [decane] + O=C=O : 8.43
4. CCCCCCCCCCCCCCCCC [heptadecane] + O=C=O : 11.78
5. CCCCCCCCCCCC [dodecane] + O=C=O : 9.51
6. CCCCCCCCCCC [undecane] + O=C=O : 8.68

====

details: 353.15 K; 2100 kPa; Liquid; Pendant drop shape
property: interfacial tension (mN/m)

1. CCCCCCCCCCCCCC [tetradecane] + O=C=O : 17.01
2. CCCCCCCCCC [decane] + O=C=O : 15.25
3. CCCCCCCCCCCCCCC [pentadecane] + O=C=O : 17.27
